molecular target: UniProt:Q9UGP5; assay: Steady-state primer extension assay, pol λ; type: biochemical
measured_parameter: IC50 (nM)
The figure you give is taken to be in nM; do not add the unit.

Name the reported IC50 value associated with the compound C=CCc1ccc(O)c(-c2ccc(O)c(CC=C)c2)c1 800

====

biological target: pol β binding to DNA (Homo sapiens); experiment: Polymerase–DNA interaction, electrophoretic mobility shift assay, pol β
measured_parameter: Ki

Name the reported Ki value associated with the molecule C=CCc1ccc(O)c(-c2ccc(O)c(CC=C)c2)c1 [HNL] > 500 µM

====

Biological target: human DNA polymerase λ (pol λ) (Homo sapiens, UniProt Q9UGP5)
Sequence (Q9UGP5 1-575): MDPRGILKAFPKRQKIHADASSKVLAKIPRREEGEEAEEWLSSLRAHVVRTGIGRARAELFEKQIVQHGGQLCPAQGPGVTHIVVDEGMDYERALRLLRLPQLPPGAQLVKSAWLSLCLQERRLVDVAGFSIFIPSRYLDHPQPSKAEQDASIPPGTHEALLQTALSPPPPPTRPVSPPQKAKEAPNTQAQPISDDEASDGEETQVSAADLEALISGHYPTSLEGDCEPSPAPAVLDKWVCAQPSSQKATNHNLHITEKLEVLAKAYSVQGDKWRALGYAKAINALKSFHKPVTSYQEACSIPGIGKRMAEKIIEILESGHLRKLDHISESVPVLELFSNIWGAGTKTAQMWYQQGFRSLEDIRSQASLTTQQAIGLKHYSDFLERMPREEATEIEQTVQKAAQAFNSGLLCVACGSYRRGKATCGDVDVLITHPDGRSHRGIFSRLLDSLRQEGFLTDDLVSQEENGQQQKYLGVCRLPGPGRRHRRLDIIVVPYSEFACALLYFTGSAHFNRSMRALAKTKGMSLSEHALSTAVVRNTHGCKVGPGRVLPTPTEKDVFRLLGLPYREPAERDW
measured_parameter: pKi
Answer as the number alone; pKi is minus log10 of concentration in mol/L.

Name the reported pKi value associated with the compound C=CCc1ccc(O)c(-c2ccc(O)c(CC=C)c2)c1 [HNL] 5.08

Source of measurements: paper PMC5665024
